Target: HN1L (Homo sapiens)
Sequence (Q9H910 1-190): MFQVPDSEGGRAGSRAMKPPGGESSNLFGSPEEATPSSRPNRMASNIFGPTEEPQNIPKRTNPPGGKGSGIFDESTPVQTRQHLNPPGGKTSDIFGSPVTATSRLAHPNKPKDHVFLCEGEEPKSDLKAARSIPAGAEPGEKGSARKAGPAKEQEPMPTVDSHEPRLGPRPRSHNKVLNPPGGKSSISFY
Test: TPP-CCR in living HL-60 cells
REPORTED ENDPOINT: pEC50
Answers are plain numbers, as −log10 of the molar value.

# MOLECULE, REPORTED ENDPOINT, NUMERIC VALUE
records = [
    ("Cc1cnc(Nc2ccc(F)cc2Cl)nc1-c1c[nH]c(C(=O)N[C@H](CO)c2cccc(Cl)c2)c1 [ERK 11e]", "pEC50", 6.96),
]

Prompt: Sample Cn1c(NC[C@@H](N)Cc2ccccc2)nc(-c2ccncc2)c(-c2ccc3ccccc3c2)c1=O — what was its pEC50?
Response: 6.41
